System: 786-0
experiment: Growth inhibition of human 786-0 cells after 48 hrs by SRB assay
Format: functional
condition_summary: 786-0, 48 h
measure: GI50
Answer as a quantity: numeral, then unit.

Sample answers from the record:
structure_smiles	GI50
COc1ccc(C(=O)N2c3ccccc3Sc3ccccc32)c(F)c1	675 nM
COc1ccc(C(=O)N2c3ccccc3Sc3ccccc32)c(OC)c1	480 nM
O=C(c1ccc2c(c1)Sc1ccccc1N2)c1c[nH]c2ccccc12	672 nM

Shift focus to the following entry.
Look up GI50 of `COc1ccc(C(=O)N2c3ccccc3Sc3ccccc32)cc1F` and report it.
609 nM

###

Tested on: MCF7
experiment: Growth inhibition of human MCF7 cells at 10 uM after 48 hrs by SRB assay relative to control
Format: functional
condition_summary: MCF7, 48 h, read-out: GI
Task for the reader: assign each of the following molecules its reported inhibition of growth at 10 µM.
Numbers only, in %.

structure_smiles	value_units	inhibition of growth at 10 µM
COc1ccc(C(=O)c2ccc3c(c2)Sc2cc(C(=O)c4ccc(OC)c(F)c4)ccc2N3C)cc1F	%	7
COc1ccc(C(=O)c2ccc3c(c2)Sc2ccccc2N3C)cc1F	%	37
COc1ccc(C(=O)N2c3ccccc3Sc3ccccc32)c(F)c1	%	76
COc1ccc(C(=O)N2c3ccccc3Sc3ccccc32)c(C(F)(F)F)c1	%	83

Shift focus to the following entry.
Look up inhibition of growth at 10 µM of `O=C(c1ccc(F)cc1F)N1c2ccccc2Sc2ccccc21` and report it.
48

###

experiment: Growth inhibition of human OVCAR8 cells after 48 hrs by SRB assay
Assay type: functional
condition_summary: OVCAR-8, 48 h
measure: GI50 (µM)
Numbers only, in µM.

Sample answers from the record:
structure_smiles	GI50, µM
O=C(c1ccc2c(c1)Sc1ccccc1N2)c1c[nH]c2ccccc12	0.556
COc1ccc(C(=O)N2c3ccccc3Sc3ccccc32)c(C(F)(F)F)c1	0.592
COc1ccc(C(=O)N2c3ccccc3Sc3ccccc32)cc1F	0.42
COc1ccc(C(=O)N2c3ccccc3Sc3ccccc32)c(OC)c1	0.749

Shift focus to the following entry.
Look up GI50 of `COc1ccc(C(=O)N2c3ccccc3Sc3ccccc32)c(F)c1` and report it.
2.2

###

experiment: Inhibition of sheep brain tubulin polymerization preincubated for 1 hr measured after 30 mins by turbidimetric-spectrophotometric method
Set-up: species or system Ovis aries
measure: pIC50
Give bare numbers, as −log10 of the molar value.

Look up pIC50 of `C=C(c1ccc(OC)c(O)c1)c1cc(OC)c(OC)c(OC)c1` and report it.
5.82

###

Tested on: NCI-H522
experiment: Growth inhibition of human NCI-H522 cells at 10 uM after 48 hrs by SRB assay relative to control
Type: functional
condition_summary: NCI-H522, 48 h, read-out: GI
measure: inhibition of growth at 10 µM (%)
One number for each entry, in %.

structure_smiles	inhibition of growth at 10 µM (%)
COc1ccc(C(=O)N2c3ccccc3Sc3ccccc32)c(C(F)(F)F)c1	98
COc1ccc(C(=O)c2ccc3c(c2)Sc2cc(C(=O)c4ccc(OC)c(F)c4)ccc2N3C)cc1F	20
O/N=C(/c1ccc2c(c1)Sc1ccccc1N2)c1c[nH]c2ccccc12	100
COc1ccc(C(=O)c2ccc3c(c2)Sc2ccccc2N3C)cc1F	22
O=C(c1ccc(Cl)cc1Cl)N1c2ccccc2Sc2ccccc21	36

Return reported inhibition of growth at 10 µM values for all items listed beneath this line.
1. O=C(c1ccc(F)cc1F)N1c2ccccc2Sc2ccccc21
2. O=C(c1ccc2c(c1)Sc1ccccc1N2)c1c[nH]c2ccccc12
3. COc1ccc(C(=O)N2c3ccccc3Sc3ccccc32)c(OC)c1
4. O=C(c1ccc(F)c(Cl)c1)N1c2ccccc2Sc2ccccc21

1: 41; 2: 100; 3: 100; 4: 57

Return reported inhibition of growth at 10 µM values for all items listed beneath this line.
1. COc1ccc(C(=O)N2c3ccccc3Sc3ccccc32)cc1F
2. COc1ccc(C(=O)N2c3ccccc3Sc3ccccc32)c(F)c1

[100, 99]

###

Test system: CCRF-CEM
experiment: Growth inhibition of human CCRF-CEM cells at 10 uM after 48 hrs by SRB assay relative to control
Format: functional
condition_summary: read-out: GI
Use 80% as the dividing line for inhibition of growth at 10 µM, with the line itself on the Condition met side and lower values as Condition not met.

As a guide, the following entries are already answered.
structure_smiles	label
O=C(c1ccc(Cl)cc1Cl)N1c2ccccc2Sc2ccccc21	Condition not met
O=C(c1ccc(F)c(Cl)c1)N1c2ccccc2Sc2ccccc21	Condition not met
COc1ccc(C(=O)c2ccc3c(c2)Sc2cc(C(=O)c4ccc(OC)c(F)c4)ccc2N3C)cc1F	Condition not met
O=C(c1ccc(F)cc1F)N1c2ccccc2Sc2ccccc21	Condition not met
COc1ccc(C(=O)N2c3ccccc3Sc3ccccc32)cc1F	Condition met
COc1ccc(C(=O)N2c3ccccc3Sc3ccccc32)c(F)c1	Condition met
COc1ccc(C(=O)N2c3ccccc3Sc3ccccc32)c(OC)c1	Condition met
COc1ccc(C(=O)c2ccc3c(c2)Sc2ccccc2N3C)cc1F	Condition not met

Moving on to another compound below.
Dear colleague, could you confirm whether `O/N=C(/c1ccc2c(c1)Sc1ccccc1N2)c1c[nH]c2ccccc12` has inhibition of growth at 10 µM at or above 80%?
Condition not met

###

experiment: Growth inhibition of human SW620 cells at 10 uM after 48 hrs by SRB assay relative to control
Format: functional
condition_summary: SW-620, 48 h, read-out: GI
measure: inhibition of growth at 10 µM
Answer as a quantity: numeral, then unit.

Sample answers from the record:
structure_smiles	inhibition of growth at 10 µM
O=C(c1ccc(F)c(Cl)c1)N1c2ccccc2Sc2ccccc21	66%
COc1ccc(C(=O)N2c3ccccc3Sc3ccccc32)c(C(F)(F)F)c1	75%
O=C(c1ccc(F)cc1F)N1c2ccccc2Sc2ccccc21	66%
O=C(c1ccc2c(c1)Sc1ccccc1N2)c1c[nH]c2ccccc12	71%
COc1ccc(C(=O)N2c3ccccc3Sc3ccccc32)c(OC)c1	75%
O=C(c1ccc(Cl)cc1Cl)N1c2ccccc2Sc2ccccc21	62%
COc1ccc(C(=O)c2ccc3c(c2)Sc2ccccc2N3C)cc1F	27%
COc1ccc(C(=O)c2ccc3c(c2)Sc2cc(C(=O)c4ccc(OC)c(F)c4)ccc2N3C)cc1F	0%

Return reported inhibition of growth at 10 µM values for all items listed beneath this line.
1. COc1ccc(C(=O)N2c3ccccc3Sc3ccccc32)cc1F
2. COc1ccc(C(=O)N2c3ccccc3Sc3ccccc32)c(F)c1
3. O/N=C(/c1ccc2c(c1)Sc1ccccc1N2)c1c[nH]c2ccccc12

1: 80%; 2: 85%; 3: 74%

###

System: KM12
experiment: Growth inhibition of human KM12 cells at 10 uM after 48 hrs by SRB assay relative to control
Type: functional
condition_summary: KM12, 48 h, read-out: GI
measure: inhibition of growth at 10 µM (%)
Numbers only, in %.

Sample answers from the record:
structure_smiles	inhibition of growth at 10 µM [%]
COc1ccc(C(=O)c2ccc3c(c2)Sc2ccccc2N3C)cc1F	30
O=C(c1ccc(F)cc1F)N1c2ccccc2Sc2ccccc21	62
COc1ccc(C(=O)c2ccc3c(c2)Sc2cc(C(=O)c4ccc(OC)c(F)c4)ccc2N3C)cc1F	0
O=C(c1ccc(F)c(Cl)c1)N1c2ccccc2Sc2ccccc21	60

Return reported inhibition of growth at 10 µM for target or system KM12, item `O=C(c1ccc(Cl)cc1Cl)N1c2ccccc2Sc2ccccc21` .
50

###

experiment: Growth inhibition of human SKOV3 cells at 10 uM after 48 hrs by SRB assay relative to control
Type: functional
condition_summary: SK-OV-3, 48 h, read-out: GI
measure: inhibition of growth at 10 µM (%)
One number for each entry, in %.

structure_smiles	measure	value_units	obs_value
O=C(c1ccc2c(c1)Sc1ccccc1N2)c1c[nH]c2ccccc12	inhibition of growth at 10 µM	%	85

Return reported inhibition of growth at 10 µM values for all items listed beneath this line.
1. O=C(c1ccc(F)c(Cl)c1)N1c2ccccc2Sc2ccccc21
2. COc1ccc(C(=O)N2c3ccccc3Sc3ccccc32)cc1F
3. COc1ccc(C(=O)N2c3ccccc3Sc3ccccc32)c(F)c1
4. COc1ccc(C(=O)N2c3ccccc3Sc3ccccc32)c(C(F)(F)F)c1
5. O=C(c1ccc(F)cc1F)N1c2ccccc2Sc2ccccc21

11
87
62
66
22

Return reported inhibition of growth at 10 µM values for all items listed beneath this line.
1. O=C(c1ccc(Cl)cc1Cl)N1c2ccccc2Sc2ccccc21
2. COc1ccc(C(=O)N2c3ccccc3Sc3ccccc32)c(OC)c1

1: 31; 2: 63

###

experiment: Growth inhibition of human SNB19 cells at 10 uM after 48 hrs by SRB assay relative to control
Type: functional
condition_summary: SNB-19, 48 h, read-out: GI
Use 40% as the dividing line for inhibition of growth at 10 µM, with the line itself on the Condition met side and lower values as Condition not met.

As a guide, the following entries are already answered.
structure_smiles	label
COc1ccc(C(=O)c2ccc3c(c2)Sc2ccccc2N3C)cc1F	Condition not met
O=C(c1ccc(Cl)cc1Cl)N1c2ccccc2Sc2ccccc21	Condition met
COc1ccc(C(=O)N2c3ccccc3Sc3ccccc32)cc1F	Condition met

Moving on to another compound below.
Dear colleague, could you confirm whether `O=C(c1ccc(F)cc1F)N1c2ccccc2Sc2ccccc21` has inhibition of growth at 10 µM at or above 40%?
Condition not met
